System name: T1, CC chemokine receptor 5 (CCR5), clone 8.5 cDNA, stably expressed on HEK 293 cells (human, UniProt P51681 1-352)
T1 construct: also called CC CKR5; CCR5 transfectants
T1 sequence (P51681 whole entry): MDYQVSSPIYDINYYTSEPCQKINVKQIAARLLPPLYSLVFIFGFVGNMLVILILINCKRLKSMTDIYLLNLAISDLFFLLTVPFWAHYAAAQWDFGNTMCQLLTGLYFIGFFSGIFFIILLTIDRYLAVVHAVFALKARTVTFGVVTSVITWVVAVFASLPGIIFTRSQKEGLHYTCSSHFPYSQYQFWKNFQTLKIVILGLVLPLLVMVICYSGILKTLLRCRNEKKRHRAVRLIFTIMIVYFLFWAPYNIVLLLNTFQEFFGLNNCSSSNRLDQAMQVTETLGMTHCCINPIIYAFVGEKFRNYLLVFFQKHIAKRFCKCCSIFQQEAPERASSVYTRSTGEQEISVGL
Assay comment: homologous competition against ^125I-MIP-1α on CCR5.1 cells
Endpoint name: IC50

INSERT INTO measurements (binder, readout_value) VALUES
  ('MIP-1α (ligand, human, UniProt P10147 23-92, looked up, also called unlabeled MIP-1α) ASLAADTPTACCFSYTSRQIPQNFIADYFETSSQCSKPGVIFLTKRSRQVCADPSEEWVQKYVSDLELSA', '~100 nM');

Value source: patent US7151087
